Attribution: ChEMBL document CHEMBL3988442

Would you kindly list Percent Effect for each of these compounds?
Tested on: Wolbachia pipientis
Test: Anti-Wolbachia Cell-Based Screen
Type: functional
Design: scale not given: in the data most compounds retested in dose-response had high values
Conditions: 5 µM
Among all 48,000 compounds or so, about 13,000 (27%) showed an effect of 50% or more. The list shows a part of the results.
State the answer as a number, implicitly in %.

Note down Percent Effect recorded for O=C1CO[C@H]2CN(Cc3c[nH]c4ccccc34)C[C@H]2N1 5.983

Note down Percent Effect recorded for CCc1cc2cc(OC)c(OC)cc2nc1SCCN1CCCCC1.Cl 130.7

Note down Percent Effect recorded for Cc1nccc(N[C@H]2CN(CCS(C)(=O)=O)C[C@@H]2C2CC2)n1 -10.57

Note down Percent Effect recorded for COc1ccc(-c2nccn2C[C@@H]2CCCN3CCCC[C@H]23)cc1 -24.08

Note down Percent Effect recorded for COc1ccc(C(C(=O)O)N(C)CCN2CCCC2)cc1F (centres undefined) 3.754

Note down Percent Effect recorded for C1CCN(CCOC2CCNCC2)CC1 5.861

Note down Percent Effect recorded for COc1cccc(/C=C/CCN2CCC(C(=O)N3CCCC3)CC2)c1 -5.123

Note down Percent Effect recorded for Cc1ccc(NC(=O)NCC2(N3CCOCC3)CCSC2)c(C)c1 (centres undefined) -11.49

Note down Percent Effect recorded for c1cc2ccc(N3CCN(Cc4ccc5c(c4)OCO5)CC3)nc2[nH]1 -12.23

Note down Percent Effect recorded for Cc1cccc(OC2CCN(c3nc(N)nc4[nH]cnc34)CC2)c1 -26.6

Note down Percent Effect recorded for N#Cc1ccccc1CN1CCc2sccc2C1 -11.84

Note down Percent Effect recorded for O=C(Nc1ccc(N2CCOCC2)nc1)N1CCc2sccc2C1 -5.037

Note down Percent Effect recorded for COc1ccccc1N1CCN(c2nc(N)nc3[nH]cnc23)CC1 106.2

Note down Percent Effect recorded for COc1cc2cc(C)c(SCCN3CCCC3)nc2cc1OC.Cl 167.2

Note down Percent Effect recorded for Cc1noc(C2CCCN(C(=O)c3ccc(F)cc3F)C2)n1 (centres undefined) -2.652

Note down Percent Effect recorded for Cc1cccc(OC2CCN(c3nccnc3C#N)CC2)n1 4.563

Note down Percent Effect recorded for CSCc1noc(C2CCC(=O)N(CCCN3CCCC3=O)C2)n1 (centres undefined) -15.49

Note down Percent Effect recorded for Cc1nnc(C(C)N(C)Cc2c(C)nn(-c3ccccc3)c2C)o1 (centres undefined) 2.363

Note down Percent Effect recorded for OC(CN(Cc1ccccc1)Cc1cccnc1)c1cccs1 (centres undefined) -7.082

Note down Percent Effect recorded for CCn1ccnc1CN1CCCN(CC2CC2)C(C(C)C)C1 (centres undefined) -2.193

Note down Percent Effect recorded for Cc1cccnc1CNC[C@H]1Cn2cc(-c3ccccc3)nc2CO1 6.747

Note down Percent Effect recorded for c1cnn(CCC2CCN(Cc3ccc4[nH]ccc4c3)CC2)c1 -20.25

Note down Percent Effect recorded for c1cnnc(N[C@@H]2CC[C@@H]3CN(Cc4ccc5cc[nH]c5c4)C[C@@H]32)c1 79.05

Note down Percent Effect recorded for c1cnnc(N[C@@H]2CC[C@@H]3CN(Cc4ccc5[nH]ccc5c4)C[C@@H]32)c1 53.89

###

Test system: Wolbachia pipientis
Test: Anti-Wolbachia Cell-Based Screen
Type: functional
Set-up: scale not given: in the data most compounds retested in dose-response had high values
Conditions: 5 µM
The whole screen tested about 48,000 compounds, of which about 13,000 (27%) showed an effect of 50% or more. Some of the results follow.
Would you kindly list Percent Effect for each of these compounds?
State the answer as a number, implicitly in %.

Answer with Percent Effect of CN1CCCN(C(=O)c2cccn2-c2ccc3c(c2)OCCO3)CC1 measured for Wolbachia pipientis. 88.31

Answer with Percent Effect of CCCC(NC(=O)c1cc(C2CC2)[nH]n1)c1nnc2ccccn12 (stereo unspecified) measured for Wolbachia pipientis. 4.911

Answer with Percent Effect of Cn1nccc1C1CCN(Cc2ccn(-c3ccccc3)n2)CC1 measured for Wolbachia pipientis. -5.293

Answer with Percent Effect of CN(C)C(=O)c1cccnc1-c1ccc2c(c1)OCCO2 measured for Wolbachia pipientis. -4.201

Answer with Percent Effect of CO[C@H]1CCN(S(=O)(=O)c2cn(C)cn2)[C@H]1Cc1cccnc1.O=C(O)C(F)(F)F.O=C(O)C(F)(F)F measured for Wolbachia pipientis. -4.938

Answer with Percent Effect of O=C(O)c1cccn1-c1ccc2c(c1)OCCO2 measured for Wolbachia pipientis. 96.33

###

Tested on: Wolbachia pipientis
Test: Anti-Wolbachia Cell-Based Screen
Format: functional
Set-up: scale not given: in the data most compounds retested in dose-response had high values
Conditions: 5 µM
Hit rate of the full screen: of about 48,000 compounds, about 13,000 (27%) showed an effect of 50% or more. Some of the results follow.
ASSAY_READOUT: Percent Effect
Please give the number followed by its unit.

Answer with Percent Effect of Cc1nc(CN2C[C@@H]3CN(c4ncc(F)cn4)C[C@@H]3C2=O)cs1.O=C(O)C(F)(F)F measured for Wolbachia pipientis. -12.56%

Answer with Percent Effect of Cn1cc(CN2CC[C@H]3C[C@@H](c4nc(C5CC5)cs4)O[C@@H]3C2)cn1 measured for Wolbachia pipientis. -0.3412%

Answer with Percent Effect of NC(=O)CN1CCCC1c1ccccc1Br (stereo unspecified) measured for Wolbachia pipientis. -4.067%

Answer with Percent Effect of Cn1cc(CN2CC[C@H]3C[C@H](c4nc(C5CC5)cs4)O[C@@H]3C2)cn1 measured for Wolbachia pipientis. 15.37%

Answer with Percent Effect of Cc1cncc(C2CCCN2CCO)n1 (stereo unspecified) measured for Wolbachia pipientis. 153.6%

Answer with Percent Effect of OCCCN1CCCC1c1cccc(Br)c1 (stereo unspecified) measured for Wolbachia pipientis. -6.004%

###

System: Wolbachia pipientis
Assay: Anti-Wolbachia Cell-Based Screen
Assay type: functional
Set-up: scale not given: in the data most compounds retested in dose-response had high values
Settings: 5 µM
About 13,000 (27%) of roughly 48,000 compounds showed an effect of 50% or more. This is one part of the list.
ASSAY_READOUT: Percent Effect (%)
State the answer as a number, implicitly in %.

Note down Percent Effect recorded for CCOC(=O)CNC(=O)N1CCN(c2ncccn2)CC1 -13.49

Note down Percent Effect recorded for CCC(Oc1ccc(N(C)S(C)(=O)=O)cc1)C(N)=O (stereo not given) 16.67

Note down Percent Effect recorded for CN(C)C1CCC2(CCN(Cc3nccn3C)CC2)c2ccccc21.O=C(O)C(F)(F)F.O=C(O)C(F)(F)F (stereo not given) 100.5

Note down Percent Effect recorded for Cn1c(Cn2cccn2)nnc1C1CCN(Cc2cccnc2N)CC1 -0.4084

Note down Percent Effect recorded for Cc1cc(Cl)c2c(c1)C1(NC(=O)c3cccnc3N1)C(=O)N2 (stereo not given) -1.916

Note down Percent Effect recorded for CN(C)C1CCC2(CCN(Cc3cccnc3)CC2)c2ccccc21.O=C(O)C(F)(F)F.O=C(O)C(F)(F)F.O=C(O)C(F)(F)F (stereo not given) 103.9

Note down Percent Effect recorded for N#Cc1cn(C2CC2)c(=O)n(Cc2noc(-c3ccsc3)n2)c1=O -8.2

Note down Percent Effect recorded for Cc1cc(C(C)(O)CNC(=O)CCOCC(C)C)c(C)o1 (stereo not given) 51.29

Note down Percent Effect recorded for OCCN1CCC(CNCc2ccc(N3CCCCC3)cc2)CC1 -10.73

Note down Percent Effect recorded for Cn1ccnc1CN1CCC2(CC1)CC(Nc1ccccn1)CO2 (stereo not given) -5.655

###

System: Wolbachia pipientis
Assay: Anti-Wolbachia Cell-Based Screen
Assay type: functional
Set-up: scale not given: in the data most compounds retested in dose-response had high values
Conditions: 5 µM
The whole screen tested about 48,000 compounds, of which about 13,000 (27%) showed an effect of 50% or more. The list shows a part of the results.
ASSAY_READOUT: Percent Effect (%)
State the answer as a number, implicitly in %.

Note down Percent Effect recorded for Cn1c(C(F)(F)F)nn(CCNC(=O)c2nc3ccccc3s2)c1=O -27.26

Note down Percent Effect recorded for Cn1cnnc1CNC(=O)c1ccc(Br)cc1O -16.68

Note down Percent Effect recorded for O=C(NCc1cccc(F)c1)c1cccc(C(=O)N2CCCC2)n1 8.268

Note down Percent Effect recorded for CCOc1ccc2nc(NC(=O)c3c(C(=O)O)cnn3C)sc2c1 -2.899

Note down Percent Effect recorded for CC(Cc1ccco1)NS(=O)(=O)N1CCCCC1 (stereo unspecified) -4.951

Note down Percent Effect recorded for COC[C@@]12CCO[C@@H]1CCN(C(=O)C1CC(F)(F)C1)C2 -30.77

Note down Percent Effect recorded for COC[C@@]12CCO[C@@H]1CCN(C(=O)C1CCSCC1)C2 -9.781

Note down Percent Effect recorded for O=C(NC1CC(=O)N(C2Cc3ccccc3C2)C1)c1csnn1 (stereo unspecified) -8.023

Note down Percent Effect recorded for Cc1cc(F)ccc1CNCc1cccc(C(=O)N2CCCC2)c1 100.5

Note down Percent Effect recorded for COc1ccc2nc(C3CC3)cc(C(=O)NCc3ncnn3C)c2c1 -9.156

Note down Percent Effect recorded for O=C(c1cccc(CNC/C=C/c2ccccc2)c1)N1CCCC1 -7.138
